Parameter MIC: see the listing below.
- Tested on: S. epidermidis S12-1
Express the result in µg/mL but write the number alone.

In [3]: df
Out[3]:
                                   compound  measured_parameter  numeric_value
0  Cc1ncc([N+](=O)[O-])n1CCN1CCN(c2cc3c(cc2F)c(=O)c(C(=O)O)c2n3C(C)S2)CC1 (centres unmarked) [Compound 2]                 MIC              8
1  CC1SC2C(C(=O)O)C(=O)c3cc(F)c(N4CCN(CC(=O)c5ccccn5)CC4)cc3N12 (centres unmarked) [Compound 33]                 MIC              8
2  CC1Sc2c(C(=O)O)c(=O)c3cc(F)c(N4CCN(Cc5ccc([N+](=O)[O-])o5)CC4)cc3n21 (centres unmarked) [Compound 10]                 MIC           2.25

Task: What value of MIC has been reported for the following compound? CC1Sc2c(C(=O)O)c(=O)c3cc(F)c(N4CCN(C(=O)c5cccc(Br)n5)CC4)cc3n21 (centres unmarked) [Compound 32]
Output: 4

Task: Same lookup for CC1Sc2c(C(=O)O)c(=O)c3cc(F)c(N4CCN(C(=O)c5ccc([N+](=O)[O-])o5)CC4)cc3n21 (centres unmarked) [Compound 11] , please.
Output: 0.13

Task: Same lookup for CC1Sc2c(C(=O)O)c(=O)c3cc(F)c(N4CCN(C(=O)c5cccc[n+]5[O-])CC4)cc3n21 (centres unmarked) [Compound 34] , please.
Output: 8

Task: Same lookup for CC(=O)NC[C@H]1CN(c2ccc(N3CCN(C(=O)c4ccccn4)CC3)c(F)c2)C(=O)O1 [Compound 77] , please.
Output: 4
